Source of measurements: ChEMBL document CHEMBL1961873

target: Dual specificity mitogen-activated protein kinase kinase 1 (Homo sapiens) (UniProt Q02750); conditions: at 1 µM;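 further: values reported are mean inhibition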
Sequence (Q02750 whole entry): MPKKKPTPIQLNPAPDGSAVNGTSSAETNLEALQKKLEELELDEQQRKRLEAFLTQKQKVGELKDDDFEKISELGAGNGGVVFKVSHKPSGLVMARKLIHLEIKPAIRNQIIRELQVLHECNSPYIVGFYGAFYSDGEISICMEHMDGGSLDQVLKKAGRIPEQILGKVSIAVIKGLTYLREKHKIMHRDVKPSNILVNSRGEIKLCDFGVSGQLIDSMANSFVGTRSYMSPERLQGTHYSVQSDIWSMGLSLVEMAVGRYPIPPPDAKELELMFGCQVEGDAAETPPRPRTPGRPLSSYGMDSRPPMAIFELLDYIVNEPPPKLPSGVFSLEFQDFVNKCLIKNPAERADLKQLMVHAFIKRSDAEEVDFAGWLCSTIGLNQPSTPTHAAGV
parameter: inhibition (%)
Numbers only, in %.

CCN1CCC(CC(=O)Nc2n[nH]c3nnc(-c4cccc(F)c4F)cc23)CC1 2.45
N#Cc1c(NC(=O)CN2CCOCC2)sc2c1CCCC2 5.95
CN(C)CCOc1ccc(-c2nc(-c3ccncc3)c(-c3ccc4c(c3)CC/C4=N\O)[nH]2)cc1 3.23
CCn1c(-c2nonc2N)nc2c(C#CC(C)(C)O)ncc(OC3CCNCC3)c21 3.44

Attention now shifts to the item below.
(Q) Note inhibition for the compound shown: `Nc1nc(-c2cccc(Cl)c2)c(-c2ccc3ncccc3n2)s1`
(A) 5.35
